# Residual rate at 10 min (%) per entry
- Procedure summary: In vitro degradation experiment in rat liver homogenate (HPLC)
- Type: in vitro ADME
- Condition context: rat liver homogenate, 37° C., 50 μg/mL, 10 min
- Protocol: In Vitro Degradation Experiment of Compounds. Chromatographic condition: mobile phase is methanol: H2O=65:35, and the water phase contains 0.06% ammonium acetate; the flow rate is 1 mL/min; the column temperature is 25° C. Apparatus: Agilent 1100 Series. […] […] The concentration of each compound at each time point was detected, that was divided by the initial concentration of each compound, to obtain the degradation ratio of each compound.
Express the result in % but write the number alone.

Use these answered entries as a reference point.
CCC(OC(=O)OC(C)C)OC(=O)c1cncn1[C@H](C)c1ccccc1 (some centres unmarked) :: 0
CC[C@@H](C)OC(=O)OCOC(=O)c1cncn1[C@H](C)c1ccccc1 :: 0
CCOC(=O)c1cncn1[C@H](C)c1ccccc1 [Etomidate, reference compound] :: 95.9
C[C@H](c1ccccc1)n1cncc1C(=O)OCOC(=O)OC(C(F)(F)F)C(F)(F)F :: 50.3
CC(C)OC(=O)OCOC(=O)c1cncn1[C@H](C)c1ccccc1 :: 0

Now let's try a different one.
Record `COC(=O)OCOC(=O)c1cncn1[C@H](C)c1ccccc1` . Reported Residual rate at 10 min (%): 0

The values you see were collected from patent US11208385B2.
